Across several publications, the following IC50 results were reported for Epidermal growth factor receptor (Homo sapiens, UniProt P00533).
The answer is to be given in nM; state only the numeric part.

• COc1cc(N2CCN(C)CC2)ccc1Nc1ncc(C(=O)Oc2ccccc2)c(-c2cn(C)c3ccccc23)n1 = 0.05

Observed IC50 on Epidermal growth factor receptor (Homo sapiens, UniProt P00533) for C#Cc1cc(Nc2ncnc3cc(OCCOC)c(OCCOC)cc23)ccc1C=O , please.
48.2

# repeat for [2H]C([2H])([2H])n1cc(-c2ccnc(Nc3cc(NC(=O)C=C)c(N4CCC(CN)CC4)cc3OC)n2)c2ccccc21
283

----------
IC50 values for Epidermal growth factor receptor (Homo sapiens) compiled from several publications are listed below.
Give the value in µM but do not write µM after it.

• COc1cc(N2CCC(N3CCN(C)CC3)CC2)c(C)cc1Nc1nccc(-n2cc(NC(=O)C=C(C)C)cn2)n1 = 0.382
• C=CC(=O)Nc1ccc(OC)c(Nc2cc(-c3[nH]c(CCCO)nc3-c3ccc(F)cc3)ccn2)c1 = 0.008
• Cc1cc(Nc2ncc(Cl)c(Nc3ccccc3NS(=O)(=O)C3CC3)n2)ccc1N1CCC(N(C)C)CC1 = 0.00476

Quick check: IC50 of CN1CCCN(c2ccc(Nc3ncc(Br)c(Nc4ccccc4NS(=O)(=O)C4CC4)n3)cc2)CC1 ?
0.00061

What do you get for [2H]C([2H])([2H])n1cc(-c2ccnc(Nc3cc(NC(=O)C=C)c(N4CCC(C)(N)CC4)cc3OC)n2)c2ccccc21 ?
0.788

Repeat for the following compound: COCCCc1nc(-c2ccc(F)cc2)c(-c2ccnc3[nH]c(-c4ccccc4)cc23)[nH]1
0.006

Cool, now Cc1c(-c2nnc(S)n2N=Cc2ccc(N(C)C)cc2)cnn1-c1ccccc1
0.423

Consider next the compound Cc1c(-c2nnc(S)n2N=Cc2ccc(F)cc2)cnn1-c1ccc(S(C)(=O)=O)cc1 in the same way.
0.121

Let us now turn to COc1cc(N2CCC(N3CCN(C)CC3)CC2)c(C)cc1Nc1nccc(-n2cc(NC(=O)C3CC3)cn2)n1
0.338

Entry [2H]C([2H])([2H])n1cc(-c2ccnc(Nc3cc(NC(=O)C=C)c(N4CCC(N(C)C)CC4)cc3OC)n2)c2ccccc21 please
0.364

Continue with C=CC(=O)Nc1cc(-c2cn(C)c3ccccc23)ncn1
0.9

Field entry: COc1cc(N2CCC(N3CCN(C)CC3)CC2)c(C)cc1Nc1nccc(-n2cc(NS(=O)(=O)C3CC3)cn2)n1
0.159
